A collection of compounds and their measured LD50
Assay: Toxicity (LD50) (PO)
Conditions: in vivo
Give a bare numeral; the unit mg/kg is implied.

**Q:** Requested field: LD50. Item: Fc1ccccc1C1=NCc2n[nH]cc2-c2ccc(Cl)cc21
**A:** 760

**Q:** Requested field: LD50. Item: Clc1ccc2c(c1)C(c1ccccc1Cl)=NCc1n[nH]cc1-2
**A:** 800

**Q:** Requested field: LD50. Item: OCCn1cc2c(n1)CN=C(c1ccccc1)c1cc(Cl)ccc1-2
**A:** 750

----------
System: male mice
Experiment: Inclined Screen (paralyzing effects, sliding off the screen)
Assay type: in vivo
Conditions: Mus musculus, groups of 6, at least 4 hours, maximum dose of 500 mg/kg, read-out: Inclined Screen (PD50)
Measure: ED50 (mg/kg)
Give a bare numeral; the unit mg/kg is implied.

>>> assay_value("Fc1ccccc1C1=NCc2n[nH]cc2-c2ccc(Cl)cc21")
66

**Q:** Requested field: ED50. Item: Cc1[nH]nc2c1-c1ccc([N+](=O)[O-])cc1C(c1ccccc1Cl)=NC2
**A:** 400

**Q:** Requested field: ED50. Item: OCCn1cc2c(n1)CN=C(c1ccccc1)c1cc(Cl)ccc1-2
**A:** 40

**Q:** Requested field: ED50. Item: CNC(=O)n1cc2c(n1)CN=C(c1ccccc1)c1cc(Cl)ccc1-2
**A:** 400

**Q:** Requested field: ED50. Item: Clc1ccc2c(c1)C(c1ccccc1Cl)=NCc1n[nH]cc1-2
**A:** 143
